Test system: HCT-116
Test: Cytotoxicity against human HCT116 cells assessed as cell growth inhibition after 48 hrs by sulforhodamine B assay
Assay type: functional, cell-based
Conditions: HCT-116, 48 h
Assignment: determine reported pIC50 for the given molecules.
Expect pIC50 as a plain number equal to -log10 of the molar concentration.

(Q) Entry under review: "COC(=O)C[C@@]1(C/C=C(\C)CCC=C(C)C)C[C@H](OC(C)=O)C=C[C@H]1O" . Reported pIC50?
(A) 4.74

(Q) What value of pIC50 has been reported for the following molecule? "CC(=O)O[C@H]1C[C@]2(CC(=O)O[C@@H]2/C=C(\C)CCC=C(C)C)C(=O)C[C@@H]1Nc1ccccc1"
(A) 5.58

(Q) Give its pIC50 value. Item: CC(=O)O[C@@H]1C=CC(=O)[C@@]2(CC(=O)O[C@@H]2/C=C(\C)CCCC(C)C=O)C1 (some centres not stated)
(A) 5.26

---

System: HCT-116
Test: Growth inhibition human HCT116 cells after 72 hrs by MTS assay
Assay type: functional, cell-based
Conditions: HCT-116, 72 h
quantity measured: pIC50
Hey, just a heads up that pIC50 is the negative log base 10 of the concentration in molar.

(Q) Tell me the measured pIC50 of "CC(C)=CCC/C(C)=C/[C@H]1OC(=O)C[C@]12C[C@H](O)C=CC2=O" , please.
(A) 5.82

(Q) Query (compound): COc1cc([C@@H]2c3cc4c(cc3[C@@H](O[C@@H]3O[C@@H]5CO[C@@H](C)O[C@H]5[C@H](O)[C@H]3O)[C@H]3COC(=O)[C@H]23)OCO4)cc(OC)c1O [ETOPOSIDE] ; field requested: pIC50
(A) 6.39

---

Experiment: Toxicity in BALB/c mouse assessed as mortality at 2.5 mg/kg, ip administered daily for 28 days
Assay type: organism-based
Conditions: in vivo, read-out: Activity
quantity measured: mortality at 672 h (%)
I only need the number, in %, no unit after it.

(Q) Return reported mortality at 672 h; argument: "CC(=O)O[C@H]1C(=O)[C@@]2(C)[C@H]([C@H](OC(=O)c3ccccc3)[C@]3(O)C[C@H](OC(=O)[C@H](O)[C@@H](NC(=O)c4ccccc4)c4ccccc4)C(C)=C1C3(C)C)[C@]1(OC(C)=O)CO[C@@H]1C[C@@H]2O"
(A) 30

---

System: A549
Test: Cytotoxicity against human A549 cells assessed as cell growth inhibition after 48 hrs by sulforhodamine B assay
Assay type: functional, cell-based
Details: A549, 48 h
Hi there, I'd appreciate the recorded IC50 for every entry that follows.

(Q) What IC50 value was documented for this compound, "COC(=O)[C@H](O)[C@@]1(C/C=C(\C)CCC=C(C)C)C[C@H](OC(C)=O)C=CC1=O" ?
(A) 7.15 µM

(Q) So what does the record say about IC50 for "CC(=O)O[C@@H]1C=CC(=O)[C@@]2(CC(=O)O[C@@H]2/C=C(\C)CCC=C(C)C)C1" ?
(A) 6.97 µM

(Q) Which IC50 value belongs to "COC(=O)C[C@@]1(C/C=C(\C)CCC=C(C)C)C[C@H](OC(C)=O)C=CC1=O" ?
(A) 24.5 µM

(Q) Value lookup for IC50; key = "CC(C)=CCC/C(C)=C/[C@H]1OC(=O)C[C@]12C[C@H](O)C=CC2=O"
(A) 2.45 µM

(Q) Consider the compound "CO[C@@H]1CC(=O)[C@@]2(CC(=O)O[C@@H]2/C=C(\C)CCC=C(C)C)C[C@@H]1O" and give its measured IC50.
(A) 4.36 µM

(Q) What value of IC50 has been recorded for this entry: "CC(C)=CCC/C(C)=C/[C@H]1OC(=O)C[C@]12C[C@H](O)C=C[C@H]2O"
(A) > 65 µM

(Q) For the compound shown here, "CO[C@H]1CC(=O)[C@@]2(CC(=O)O[C@@H]2/C=C(\C)CCC=C(C)C)C[C@@H]1O" , give the reported IC50.
(A) 18.4 µM

(Q) For the compound "CC(=O)O[C@@H]1C=CC(=O)[C@@](C/C=C(\C)CCC=C(C)C)(CC(=O)O)C1" , what IC50 is on record?
(A) > 57.5 µM

(Q) I'd like to know its IC50. The compound in question is "CC(=O)O[C@@H]1C=C[C@@H](O)[C@@]2(CC(=O)O[C@@H]2/C=C(\C)CCC=C(C)C)C1"
(A) 18.3 µM

(Q) Which IC50 value belongs to "CC(=O)O[C@@H]1C=CC(=O)[C@@]2(CC(=O)O[C@@H]2/C=C(\C)C/C=C/C(C)(C)O)C1" ?
(A) 20.8 µM

(Q) Report IC50 for "COC(=O)C[C@@]1(C/C=C(\C)CCC=C(C)C)C[C@H](OC(C)=O)C=C[C@H]1O" please.
(A) 18 µM

---

For each of the molecules below, state its pIC50.
Tested on: HCT-116
Test: Cytotoxicity against human HCT116 cells assessed as cell growth inhibition after 24 hrs by sulforhodamine B assay
Assay type: functional, cell-based
Settings: HCT-116, 24 h
Note on units: pIC50 is unitless, being -log10 of a concentration expressed in mol/L.

(Q) State the recorded pIC50 for this entry: "CC(=O)O[C@H]1C[C@]2(CC(=O)O[C@@H]2/C=C(\C)CCC=C(C)C)C(=O)C[C@H]1N(C(=O)c1ccccc1)c1ccccc1"
(A) 4.85

(Q) pIC50 for "CC(=O)O[C@@H]1C=CC(=O)[C@@]2(CC(=O)O[C@@H]2/C=C(\C)CCC=C(C)C)C1" ?
(A) 5.40

(Q) If you can, please state the reported pIC50 value of "CC(=O)O[C@H]1C[C@]2(CC(=O)O[C@@H]2/C=C(\C)CCC=C(C)C)C(=O)C[C@@H]1Nc1ccccc1" .
(A) 5.46

(Q) If you can, please state the reported pIC50 value of CC(=O)O[C@@H]1C=CC(=O)[C@@]2(CC(=O)O[C@@H]2/C=C(\C)CCCC(C)C=O)C1 (stereo not given in full) .
(A) 5.14

(Q) Consider the molecule "CC(=O)O[C@H]1C[C@]2(CC(=O)O[C@@H]2/C=C(\C)CCC=C(C)C)C(=O)C[C@H]1Nc1ccccc1" and give its measured pIC50.
(A) 5.53

(Q) Returns the measured pIC50 for the input molecule. Input: CC(=O)O[C@@H]1C=CC(=O)[C@@]2(CC(=O)O[C@@H]2CC(C)CCCC(C)C)C1 (stereo not given in full)
(A) 5.71

(Q) # pIC50 lookup, item "CC(=O)O[C@@H]1C=CC(=O)[C@@]2(CC(=O)O[C@@H]2/C=C(\C)CCC=C(CO)CO)C1"
(A) 4.89

(Q) If you can, please state the reported pIC50 value of "CC(C)=CCC/C(C)=C/[C@H]1OC(=O)C[C@]12C[C@H](OC(=O)c1ccc(N(C)C)cc1)C=CC2=O" .
(A) 5.59

(Q) Item under review: "CC(=O)O[C@@H]1C=CC(=O)[C@@]2(CC(=O)O[C@@H]2/C=C(\C)CC/C=C(\C)CO)C1" . Reported pIC50?
(A) 5.16

(Q) # input molecule: "CC(C)=CCC/C(C)=C/[C@H]1OC(=O)C[C@]12C[C@H](O)C=CC2=O" ; wanted: its pIC50
(A) 5.44

---

What IC50 was measured for each of the following?
System: HCT-116
Test: Cytotoxicity against human HCT116 cells assessed as cell growth inhibition after 48 hrs by sulforhodamine B assay
Assay type: functional, cell-based
Settings: HCT-116, 48 h
Provide the reading as a plain figure in µM.

(Q) Quick check: IC50 on HCT-116, item "COC(=O)[C@H](O)[C@@]1(C/C=C(\C)CCC=C(C)C)C[C@H](OC(C)=O)C=CC1=O" ?
(A) 4.1

(Q) Quick check: IC50 on HCT-116, item "CC(C)=CCC/C(C)=C/[C@H]1OC(=O)C[C@]12C[C@H](OC(=O)c1ccc(N(C)C)cc1)C=CC2=O" ?
(A) 1.69

(Q) Tell me reported IC50 for "CC(=O)O[C@H]1C[C@]2(CC(=O)O[C@@H]2/C=C(\C)CCC=C(C)C)C(=O)C[C@H]1N(C(=O)c1ccccc1)c1ccccc1" , tested with HCT-116.
(A) 10.4

(Q) Lab request: please report IC50 under test system HCT-116 for "CC(=O)O[C@@H]1C=CC(=O)[C@@]2(CC(=O)O[C@@H]2/C=C(\C)C/C=C/C(C)(C)O)C1"
(A) 4.2

(Q) Kindly state the measured IC50 obtained for "CC(=O)O[C@@H]1C=CC(=O)[C@@]2(CC(=O)O[C@@H]2/C=C(\C)CCC=C(CO)CO)C1" with HCT-116.
(A) 13.7

(Q) Please provide the recorded IC50 for CC(=O)O[C@@H]1C=CC(=O)[C@@]2(CC(=O)O[C@@H]2CC(C)CCCC(C)C)C1 (some centres not stated) , tested on HCT-116.
(A) 1.95

(Q) Provide the documented IC50 with HCT-116 as the system for "CO[C@@H]1CC(=O)[C@@]2(CC(=O)O[C@@H]2/C=C(\C)CCC=C(C)C)C[C@@H]1O"
(A) 3.5

(Q) Missing value: IC50, HCT-116, entry "CO[C@H]1CC(=O)[C@@]2(CC(=O)O[C@@H]2/C=C(\C)CCC=C(C)C)C[C@@H]1O" . Fill in?
(A) 17.2

(Q) So what IC50 did "CC(=O)O[C@@H]1C=C[C@@H](O)[C@@]2(CC(=O)O[C@@H]2/C=C(\C)CCC=C(C)C)C1" get with HCT-116?
(A) 13.3

(Q) // lookup IC50 | system=HCT-116 | key= "COC(=O)C[C@@]1(C/C=C(\C)CCC=C(C)C)C[C@H](OC(C)=O)C=CC1=O"
(A) 13

(Q) Lab note: need IC50 for "CC(=O)O[C@@H]1C=CC(=O)[C@@]2(CC(=O)O[C@@H]2/C=C(\C)CC/C=C(\C)CO)C1" on HCT-116, anyone have it?
(A) 5.85

(Q) Short answer please: IC50, HCT-116, entry "CC(=O)O[C@H]1C[C@]2(CC(=O)O[C@@H]2/C=C(\C)CCC=C(C)C)C(=O)C[C@H]1Nc1ccccc1"
(A) 2.5
